FYI, the data here is from patent US5434292A.

This listing pairs compounds with measured Inhibition rate (swelling of hind paws).
Tested on: adjuvant arthritis
Experiment: Adjuvant arthritis experiment using rats
Assay type: in vivo, Wistar-strain male rats
Conditions: oral, 1.0 mg/kg once a day for 7 days
Method: Pharmacological Experiment 4 (Adjuvant arthritis experiment using rats) 0.6 mg/0.1 ml of Mycobacterium butyricum suspended in liquid paraffin were subcutaneously administered to the root of the tall of each of Wistar-strain male rats each weighing about 200 g (for the compound of Example 2 and comparative compound 1) or 240 g (for the compound of Example 24 and comparative compounds 4 and 5). […] Swelling volume ratio = {(paw volume measured […] measured 19 days (*b) after the subcutaneous […]
METRIC_NAME: Inhibition rate (swelling of hind paws)

{"columns": ["COMPOUND", "METRIC_NAME", "REPORTED_MEASUREMENT"],
 "data": [
  ["COc1ccc2c(c1)c(CC(=O)O)c(C)n2C(=O)c1ccc(Cl)cc1 [compound 4, Indomethacin, reference compound]", "Inhibition rate (swelling of hind paws)", "58.7%"],
  ["CC(C(=O)O)c1ccc(C[C@@H]2CCCC[C@H]2O)c(Cl)c1 (relative stereo) [Example 24]", "Inhibition rate (swelling of hind paws)", "65.9%"],
  ["CC(C(=O)O)c1ccc(CC2CCCCC2=O)c(Cl)c1 (stereo not shown) [Example 2]", "Inhibition rate (swelling of hind paws)", "62.1%"],
  ["CC(C(=O)O)c1ccc(CC2CCCC2=O)cc1 (stereo not shown) [compound 1, Loxoprofen, reference compound]", "Inhibition rate (swelling of hind paws)", "1.3%"]
]}
